- Tested on: rodent lifetime carcinogenesis bioassay, tumor incidence TD50
- procedure text: carcinogenic potency in animals, long-term in vivo studies, CPDB compilation (AID 1745844)
- conditions: mouse; strain BALB/c; males; in feed; site: liver; lesion: hepatoma; dosed 60 weeks; study length 104 weeks
The source made the active and inactive calls. No rule for the calls is given here.
observation type: TD50

[[record]]
input_smiles = "O=C1OC(c2ccc(O)cc2)(c2ccc(O)cc2)c2ccccc21"
observation_type = "TD50"
observed_result = "20800 mg/kg/day (inactive)"


###

- System: rodent lifetime carcinogenesis bioassay, tumor incidence TD50
- procedure text: carcinogenic potency in animals, long-term in vivo studies, CPDB compilation (AID 1745844)
- conditions: rat; strain MRC-Wistar; males; in drinking water; site: any site (literature study); lesion: several types; types named in the paper; dosed 52 weeks; study length 70 weeks
observation type: TD50 (mg/kg/day)

[[record]]
input_smiles = "NC(=O)N(CCO)N=O"
observed_result = 0.36


###

- Tested on: rodent lifetime carcinogenesis bioassay, tumor incidence TD50
- procedure text: carcinogenic potency in animals, long-term in vivo studies, CPDB compilation (AID 1745844)
- conditions: rat; strain Sprague-Dawley; females; inhaled; site: extrahepatic tissue; lesion: angioma; dosed 52 weeks; study length 111 weeks
observation type: TD50

[[record]]
input_smiles = "C=CCl"
observation_type = "TD50"
observed_result = "115 mg/kg/day"


###

- Test system: rodent lifetime carcinogenesis bioassay, tumor incidence TD50
- procedure text: carcinogenic potency in animals, long-term in vivo studies, CPDB compilation (AID 1745844)
- conditions: rat; strain F344/DuCrj; females; in drinking water; site: adrenal medulla; lesion: pheochromocytoma, malignant; dosed 104 weeks; study length 108 weeks
observation type: TD50

[[record]]
input_smiles = "CC(=O)OC/C=C(C)/C=C/C=C(C)/C=C/C1=C(C)CCCC1(C)C"
observed_result = "7340 mg/kg/day"


###

- Test system: rodent lifetime carcinogenesis bioassay, tumor incidence TD50
- procedure text: carcinogenic potency in animals, long-term in vivo studies, CPDB compilation (AID 1745844)
- conditions: rat; strain Buffalo; males; in feed; site: liver; lesion: hepatocellular carcinoma; dosed 26 weeks; study length 52 weeks
observation type: TD50

[[record]]
input_smiles = "CN(C)N=O"
observed_result = "1.76 mg/kg/day"


###

- Tested on: rodent lifetime carcinogenesis bioassay, tumor incidence TD50
- procedure text: carcinogenic potency in animals, long-term in vivo studies, CPDB compilation (AID 1745844)
- conditions: rat; strain Not specified; males; in feed; site: liver; lesion: carcinoma; dosed 65 weeks; study length 65 weeks
observation type: TD50

[[record]]
input_smiles = "Cc1cc(C)c(N=Nc2c(O)c(S(=O)(=O)O)cc3cc(S(=O)(=O)O)ccc23)cc1C"
target_entity = "rodent lifetime carcinogenesis bioassay, tumor incidence TD50"
observed_result = "1240 mg/kg/day"


###

- System: rodent lifetime carcinogenesis bioassay, tumor incidence TD50
- procedure text: carcinogenic potency in animals, long-term in vivo studies, CPDB compilation (AID 1745844)
- conditions: mouse; strain C57BL/6; females; in drinking water; site: lung; lesion: one or several types; types not named; dosed 117 weeks; study length 126 weeks
Activity calls are given as the source filed them. No rule for the calls is given here.
observation type: TD50

[[record]]
input_smiles = "O=NO"
observation_type = "TD50"
observed_result = "5200 mg/kg/day (inactive)"


Attribution: PubChem BioAssay AID1745844
